Cited source: paper PMC3822589

IC50 by entry:
system: Phospho-STAT5 (P-STAT5) levels in HEL cells (Jak2V617F); test: Western blot of phospho-STAT5 in HEL cells; assay type: cell-based, human; conditions: read-out: IC50 values, WB (P-STAT5); HEL cells; mean ± SD
resultType: IC50 (nM)

[
  {
    "smilesRepresentation": "Cc1cnc(Nc2ccc(N3CCN(C)CC3)cc2)nc1Nc1cccc(S(=O)(=O)NC(C)(C)C)c1",
    "resultType": "IC50",
    "readoutUnit": "nM",
    "readoutNumber": 92
  },
  {
    "smilesRepresentation": "CC(C)(C)c1nc2c3cc[nH]c(=O)c3c3cc(F)ccc3c2[nH]1",
    "resultType": "IC50",
    "readoutUnit": "nM",
    "readoutNumber": 133
  },
  {
    "smilesRepresentation": "N#CCNC(=O)c1ccc(-c2ccnc(Nc3ccc(N4CCOCC4)cc3)n2)cc1",
    "resultType": "IC50",
    "readoutUnit": "nM",
    "readoutNumber": 633
  },
  {
    "smilesRepresentation": "Cc1cnc(Nc2ccc(OCCN3CCCC3)cc2)nc1Nc1cccc(S(=O)(=O)NC(C)(C)C)c1",
    "resultType": "IC50",
    "readoutUnit": "nM",
    "readoutNumber": 636
  },
  {
    "smilesRepresentation": "C[C@]12O[C@H](C[C@]1(O)CO)n1c3ccccc3c3c4c(c5c6ccccc6n2c5c31)CNC4=O",
    "resultType": "IC50",
    "readoutUnit": "nM",
    "readoutNumber": 97
  }
]

----------
system: Jak2V617F in HEK-V617F-STAT-Rep. cells; test: pSTAT-ZsGreen reporter gene assay; type: cell-based; details: 24 h, read-out: IC50 values, STAT-reporter gene assay
pIC50: −log10 of the molar value.
Listing of entries alongside the reported pIC50.

[
  {
    "compound": "C[C@]12O[C@H](C[C@]1(O)CO)n1c3ccccc3c3c4c(c5c6ccccc6n2c5c31)CNC4=O [CEP701]",
    "pIC50": 6.95
  },
  {
    "compound": "Cc1cnc(Nc2ccc(OCCN3CCCC3)cc2)nc1Nc1cccc(S(=O)(=O)NC(C)(C)C)c1 [TG101348]",
    "pIC50": 6.07
  },
  {
    "compound": "N#CCNC(=O)c1ccc(-c2ccnc(Nc3ccc(N4CCOCC4)cc3)n2)cc1 [CYT387]",
    "pIC50": 6.10
  }
]

----------
Measured IC50 by item
test system: HEL cells; experiment: Cell proliferation assay; assay type: cell-based, human; conditions: Homo sapiens, HEL, 72 h, read-out: IC50 values, Proliferation assay
resultType: IC50 (nM)

[
  {
    "smilesRepresentation": "N#CCNC(=O)c1ccc(-c2ccnc(Nc3ccc(N4CCOCC4)cc3)n2)cc1",
    "readoutNumber": 1180
  },
  {
    "smilesRepresentation": "Cc1cnc(Nc2ccc(OCCN3CCCC3)cc2)nc1Nc1cccc(S(=O)(=O)NC(C)(C)C)c1",
    "readoutNumber": 725
  },
  {
    "smilesRepresentation": "C[C@]12O[C@H](C[C@]1(O)CO)n1c3ccccc3c3c4c(c5c6ccccc6n2c5c31)CNC4=O",
    "readoutNumber": 81
  },
  {
    "smilesRepresentation": "Cc1cc(Nc2cc(N3CCN(C)CC3)nc(Sc3ccc(NC(=O)C4CC4)cc3)n2)[nH]n1",
    "readoutNumber": 158
  }
]
